# System: Hek293T
# runDescription: Primary qHTS to identify gynecologic anti-cancer compounds using libraries of approved drugs and bioactive compounds (AID 1345084); also: nearly all actives have a fitted effect of over 55% in size
# measurementParameters: Gynecologic cancer cell panel viability, ATPlite luminescence, 48 h, control line for the selectivity index; series mostly up to 57.5 µM
Records with an inconclusive call do not appear. The source made the active and inactive calls. Calls follow the shape of the dose curve; as a rule, active = well fitted cell-killing curve with a large enough effect; inconclusive = small, poorly fitted or top-dose-only effect, or effect the other way; inactive = flat fitted curve, though single readings scatter.
Outcomes: active, inactive

CC(C(=O)O)c1cccc(C(=O)c2ccccc2)c1 (stereo unspecified) :: inactive
CC(C)(C)C(=O)Oc1ccc(S(=O)(=O)Nc2ccccc2C(=O)NCC(=O)O)cc1 :: inactive
CC#C[C@]1(O)CC[C@H]2[C@@H]3CCC4=CC(=O)CCC4=C3[C@@H](c3ccc(N(C)C)cc3)C[C@@]21C :: inactive
CN1CCC(=C2c3ccccc3CC(=O)c3sccc32)CC1 :: inactive
CCOC(=O)C(C)(C)Oc1ccc(Cl)cc1 :: inactive
Nc1c2c(nc3ccccc13)CCCC2 :: inactive
COc1ccccc1OCC(O)CN1CCN(CC(=O)Nc2c(C)cccc2C)CC1 (stereo unspecified) :: inactive
CN(Cc1cnc2nc(N)nc(N)c2n1)c1ccc(C(=O)N[C@@H](CCC(=O)O)C(=O)O)cc1 :: active
COc1nc(C)nc(Cl)c1NC1=NCCN1 :: inactive
Nc1ccn([C@H]2CC[C@@H](CO)O2)c(=O)n1 :: inactive
O=C(c1ccc(OCCN2CCCCC2)cc1)c1c(-c2ccc(O)cc2)sc2cc(O)ccc12 :: inactive
NCCc1cnc[nH]1 :: inactive
CC[N+](CC)(CC)CCOc1cccc(OCC[N+](CC)(CC)CC)c1OCC[N+](CC)(CC)CC :: inactive
CS(=O)(=O)Nc1ccc([N+](=O)[O-])cc1Oc1ccccc1 :: inactive
CN(C)C(=N)N=C(N)N :: inactive
Cc1ccc(C(=O)Nc2ccc(S(=O)(=O)O)c3cc(S(=O)(=O)O)cc(S(=O)(=O)O)c23)cc1NC(=O)c1cccc(NC(=O)Nc2cccc(C(=O)Nc3cc(C(=O)Nc4ccc(S(=O)(=O)O)c5cc(S(=O)(=O)O)cc(S(=O)(=O)O)c45)ccc3C)c2)c1 :: inactive
Clc1ccc2nsnc2c1NC1=NCCN1 :: inactive
O=c1c(O)c(-c2ccc(O)c(O)c2)oc2cc(O)cc(O)c12 :: inactive
CC1(C)O[C@H]2CC(=O)OC[C@]23[C@H]2CC[C@@]4(C)[C@H](c5ccoc5)OC(=O)[C@H]5O[C@]54[C@]2(C)C(=O)C[C@@H]13 :: inactive
NCCCCCC(=O)O :: inactive
COc1ccccc1N1CCN(CC(O)COc2cccc3ccccc23)CC1 (stereo unspecified) :: active

* * *

# runDescription: Quantitative High-Throughput drug screen in 47 multiple myeloma cell lines against the NCATS MIPE library collection: PE2_PLB cell viability assay (AID 1919869); also: nearly all actives have a fitted effect of over 35% in size
# measurementParameters: PE2_PLB myeloma cells viability, ATP luminescence, 48 h; series mostly up to 45.8 µM
Records with an inconclusive call do not appear. Activity calls are given as the source filed them. Calls follow the shape of the dose curve; as a rule, active = well fitted cell-killing curve with a large enough effect; inconclusive = small, poorly fitted or top-dose-only effect, or effect the other way; inactive = no such curve, though single readings can be large or run the other way.
Outcomes: TRUE (active), FALSE (inactive)

Cn1c(=O)c2[nH]cnc2n(C)c1=O :: FALSE
CN(C)CCC=C1c2ccccc2C=Cc2ccccc21 :: FALSE
CN(C)C(=N)N=C(N)N :: FALSE
O=c1c(O)c(-c2ccc(O)c(O)c2)oc2cc(O)cc(O)c12 :: TRUE
CN(C)CCCN1c2ccccc2CCc2ccc(Cl)cc21 :: TRUE
CCN1CCCC1CNC(=O)c1cc(S(=O)(=O)CC)c(N)cc1OC (stereo unspecified) :: FALSE

Where these numbers come from: PubChem BioAssay (NCATS)
